- ASSAY SYSTEM: human FSH receptor (Homo sapiens)
- Sequence (P23945 18-695): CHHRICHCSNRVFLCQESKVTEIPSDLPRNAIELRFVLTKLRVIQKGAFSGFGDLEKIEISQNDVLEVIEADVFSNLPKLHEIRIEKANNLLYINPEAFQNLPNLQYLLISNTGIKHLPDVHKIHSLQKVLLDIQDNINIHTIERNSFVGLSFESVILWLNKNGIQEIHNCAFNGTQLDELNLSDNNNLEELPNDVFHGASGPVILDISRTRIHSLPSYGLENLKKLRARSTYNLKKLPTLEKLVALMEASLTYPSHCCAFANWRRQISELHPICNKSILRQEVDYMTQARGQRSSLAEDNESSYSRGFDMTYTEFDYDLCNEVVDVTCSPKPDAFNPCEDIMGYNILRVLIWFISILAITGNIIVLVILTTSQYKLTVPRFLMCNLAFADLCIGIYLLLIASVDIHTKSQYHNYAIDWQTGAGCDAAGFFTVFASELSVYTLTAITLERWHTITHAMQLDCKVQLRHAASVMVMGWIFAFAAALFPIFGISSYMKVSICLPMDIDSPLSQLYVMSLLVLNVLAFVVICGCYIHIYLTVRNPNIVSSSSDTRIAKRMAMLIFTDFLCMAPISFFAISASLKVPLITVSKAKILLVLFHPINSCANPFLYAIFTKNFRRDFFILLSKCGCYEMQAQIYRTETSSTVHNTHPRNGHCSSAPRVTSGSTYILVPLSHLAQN
- MEASUREMENT PROTOCOL: HTRF assay for measuring cAMP in cells, test for agonism (in the absence of hFSH)
- RUN CONDITIONS: hFSHR clone 16 cells (CHO cells stably transfected with the human FSH receptor), 37° C. for 2 h, read-out: EC50 (FSH agonistic effect in the HTRF assay)
REPORTED ENDPOINT: EC50 (µM)

A = COc1ccc2nc(-c3cc(OC)c(OC)c(OC)c3)cc(C(=O)N[C@@H](CCO)Cc3ccsc3)c2c1
B = COc1ccc2nc(-c3cc(OC)c(OC)c(OC)c3)cc(C(=O)N[C@H](CCO)Cc3ccccc3)c2c1
[ask] // compare: A vs B , metric EC50, want the smaller Please respond with the label that marks your chosen entry.
[reply] A
(A: 5 µM, B: 8 µM)
